Target: Poly [ADP-ribose] polymerase tankyrase-1 (Homo sapiens, UniProt O95271)
Sequence (O95271 whole entry, the tested form may be a part): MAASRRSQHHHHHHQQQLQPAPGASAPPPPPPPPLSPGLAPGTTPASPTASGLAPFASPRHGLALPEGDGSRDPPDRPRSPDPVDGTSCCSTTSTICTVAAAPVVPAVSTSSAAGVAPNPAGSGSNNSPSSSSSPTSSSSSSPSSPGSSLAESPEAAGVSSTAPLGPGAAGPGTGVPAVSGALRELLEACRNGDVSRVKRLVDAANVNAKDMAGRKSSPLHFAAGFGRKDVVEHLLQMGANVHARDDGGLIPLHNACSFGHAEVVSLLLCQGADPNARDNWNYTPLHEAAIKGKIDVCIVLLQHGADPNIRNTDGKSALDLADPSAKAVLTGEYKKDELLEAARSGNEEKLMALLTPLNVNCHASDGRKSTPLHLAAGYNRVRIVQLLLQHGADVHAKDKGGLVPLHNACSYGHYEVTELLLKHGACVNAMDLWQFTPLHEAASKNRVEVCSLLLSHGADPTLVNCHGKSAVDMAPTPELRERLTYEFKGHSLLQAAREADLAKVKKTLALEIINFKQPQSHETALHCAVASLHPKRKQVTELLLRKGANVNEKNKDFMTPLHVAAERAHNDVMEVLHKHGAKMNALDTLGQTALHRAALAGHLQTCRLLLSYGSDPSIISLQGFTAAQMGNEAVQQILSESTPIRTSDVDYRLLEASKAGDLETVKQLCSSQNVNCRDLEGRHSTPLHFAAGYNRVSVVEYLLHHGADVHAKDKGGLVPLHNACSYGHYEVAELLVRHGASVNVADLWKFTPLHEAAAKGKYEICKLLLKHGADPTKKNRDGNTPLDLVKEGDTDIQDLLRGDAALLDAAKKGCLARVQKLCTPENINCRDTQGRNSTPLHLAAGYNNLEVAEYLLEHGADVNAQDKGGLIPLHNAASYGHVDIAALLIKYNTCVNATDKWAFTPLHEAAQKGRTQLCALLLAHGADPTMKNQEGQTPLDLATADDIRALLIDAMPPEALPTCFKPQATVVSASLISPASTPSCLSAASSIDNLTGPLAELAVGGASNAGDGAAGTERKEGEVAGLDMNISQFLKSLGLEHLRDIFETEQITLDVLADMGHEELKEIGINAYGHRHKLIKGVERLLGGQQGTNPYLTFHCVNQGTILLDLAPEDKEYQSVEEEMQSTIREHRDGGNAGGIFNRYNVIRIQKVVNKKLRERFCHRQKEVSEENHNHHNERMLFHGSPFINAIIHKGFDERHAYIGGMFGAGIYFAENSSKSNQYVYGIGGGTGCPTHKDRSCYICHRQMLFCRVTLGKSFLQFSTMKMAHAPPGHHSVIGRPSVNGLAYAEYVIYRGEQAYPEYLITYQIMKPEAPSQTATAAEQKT
Assay: Inhibition of recombinant human His6-tagged PARP5a catalytic domain (1091 to 1325 residues) expressed in Escherichia coli BL21(DE3) preincubated for 15 mins followed by biotinylated NAD+ addition by chemiluminescence assay
Settings: read-out: IC50
pIC50: −log10 of the molar value.
Readout kind: pIC50

Would you please look over these solved cases?
In [3]: df
Out[3]:
                                   compound  numeric_readout
0  NC(=O)c1cccc(NC(=O)/C=C\C(=O)N2CCC(Cc3ccccc3)CC2)c1             5.32
1  NC(=O)c1cccc(NC(=O)/C=C\C(=O)N2CCN(c3ccc(-c4ccccc4)cc3)CC2)c1             5.01
2  NC(=O)c1cccc(NC(=O)/C=C\C(=O)N2CCC(c3ccc(F)cc3)CC2)c1             5.10
3  NC(=O)c1cccc(NC(=O)/C=C\C(=O)N2CCN(c3ccc(F)cc3)CC2)c1             5.57
4  NC(=O)c1cccc(NC(=O)/C=C\C(=O)N2CCN(c3ccccc3F)CC2)c1             5.03
5  NC(=O)c1cccc(NC(=O)/C=C\C(=O)N2CCCC(c3ccccc3)C2)c1 (stereo not drawn)             5.57

[1] NC(=O)c1cccc(NC(=O)/C=C\C(=O)N2CCN(c3ccccc3)CC2)c1
[2] NC(=O)c1cccc(NC(=O)/C=C\C(=O)N2CCN(c3ccc(Cl)cc3)CC2)c1
Please state the entry with greater pIC50 among 1 and 2 . # respond with the chosen item's label
2

---

Molecular target: UniProtKB P09874
Test: Inhibition of recombinant human full length His6-tagged PARP1 expressed in Escherichia coli BL21(DE3) preincubated for 15 mins followed by biotinylated NAD+ addition by chemiluminescence assay
Readout kind: IC50 (nM)

[I] NC(=O)c1cccc(NC(=O)/C=C\C(=O)N2CCN(c3ccccc3)CC2)c1
[II] NC(=O)c1cccc(NC(=O)/C=C\C(=O)N2CCN(c3ccc(Cl)cc3)CC2)c1
[III] NC(=O)c1cccc(NC(=O)/C=C\C(=O)N2CCCC(c3ccccc3)C2)c1 (stereo not drawn)
[IV] NC(=O)c1cccc(NC(=O)/C=C\C(=O)N2CCN(c3ccc(F)cc3)CC2)c1
[V] NC(=O)c1cccc(NC(=O)/C=C\C(=O)N2CCN(c3ccc(-c4ccccc4)cc3)CC2)c1
For the compounds shown above, give the order from largest IC50 to smallest. Use the labels to give the requested order.
III, V, IV, I, II
(III: 1600 nM, V: 800 nM, IV: 560 nM, I: 370 nM, II: 220 nM)

---

Target: Protein mono-ADP-ribosyltransferase PARP12 (Homo sapiens)
Sequence (Q9H0J9 whole entry): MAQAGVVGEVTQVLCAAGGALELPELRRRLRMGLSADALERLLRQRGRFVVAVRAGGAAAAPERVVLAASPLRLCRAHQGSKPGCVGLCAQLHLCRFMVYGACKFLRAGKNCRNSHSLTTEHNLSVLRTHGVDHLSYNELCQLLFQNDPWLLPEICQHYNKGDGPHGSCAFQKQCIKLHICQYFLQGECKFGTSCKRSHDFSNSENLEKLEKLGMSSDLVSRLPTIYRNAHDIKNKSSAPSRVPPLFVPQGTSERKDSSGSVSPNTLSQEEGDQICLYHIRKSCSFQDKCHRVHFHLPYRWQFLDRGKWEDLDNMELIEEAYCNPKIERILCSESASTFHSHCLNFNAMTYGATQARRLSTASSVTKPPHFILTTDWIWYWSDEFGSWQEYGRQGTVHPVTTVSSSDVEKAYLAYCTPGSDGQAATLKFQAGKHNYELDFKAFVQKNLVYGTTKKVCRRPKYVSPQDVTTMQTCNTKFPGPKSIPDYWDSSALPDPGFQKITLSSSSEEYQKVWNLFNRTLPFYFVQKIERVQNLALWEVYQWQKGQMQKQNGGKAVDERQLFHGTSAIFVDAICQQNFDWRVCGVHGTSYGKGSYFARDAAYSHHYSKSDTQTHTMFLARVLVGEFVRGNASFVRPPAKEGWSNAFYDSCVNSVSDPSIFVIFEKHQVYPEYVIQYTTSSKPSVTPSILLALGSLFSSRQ
Readout kind: pIC50
Reminder that pIC50 is minus the log10 of a molar concentration.

For the compound shown here, NC(=O)c1cccc(NC(=O)/C=C\C(=O)N2CCN(c3ccc(F)cc3)CC2)c1 , give the reported pIC50.
5.09

---

Target: Protein mono-ADP-ribosyltransferase PARP14 (Homo sapiens)
Sequence (Q460N5 whole entry, the tested form may be a part): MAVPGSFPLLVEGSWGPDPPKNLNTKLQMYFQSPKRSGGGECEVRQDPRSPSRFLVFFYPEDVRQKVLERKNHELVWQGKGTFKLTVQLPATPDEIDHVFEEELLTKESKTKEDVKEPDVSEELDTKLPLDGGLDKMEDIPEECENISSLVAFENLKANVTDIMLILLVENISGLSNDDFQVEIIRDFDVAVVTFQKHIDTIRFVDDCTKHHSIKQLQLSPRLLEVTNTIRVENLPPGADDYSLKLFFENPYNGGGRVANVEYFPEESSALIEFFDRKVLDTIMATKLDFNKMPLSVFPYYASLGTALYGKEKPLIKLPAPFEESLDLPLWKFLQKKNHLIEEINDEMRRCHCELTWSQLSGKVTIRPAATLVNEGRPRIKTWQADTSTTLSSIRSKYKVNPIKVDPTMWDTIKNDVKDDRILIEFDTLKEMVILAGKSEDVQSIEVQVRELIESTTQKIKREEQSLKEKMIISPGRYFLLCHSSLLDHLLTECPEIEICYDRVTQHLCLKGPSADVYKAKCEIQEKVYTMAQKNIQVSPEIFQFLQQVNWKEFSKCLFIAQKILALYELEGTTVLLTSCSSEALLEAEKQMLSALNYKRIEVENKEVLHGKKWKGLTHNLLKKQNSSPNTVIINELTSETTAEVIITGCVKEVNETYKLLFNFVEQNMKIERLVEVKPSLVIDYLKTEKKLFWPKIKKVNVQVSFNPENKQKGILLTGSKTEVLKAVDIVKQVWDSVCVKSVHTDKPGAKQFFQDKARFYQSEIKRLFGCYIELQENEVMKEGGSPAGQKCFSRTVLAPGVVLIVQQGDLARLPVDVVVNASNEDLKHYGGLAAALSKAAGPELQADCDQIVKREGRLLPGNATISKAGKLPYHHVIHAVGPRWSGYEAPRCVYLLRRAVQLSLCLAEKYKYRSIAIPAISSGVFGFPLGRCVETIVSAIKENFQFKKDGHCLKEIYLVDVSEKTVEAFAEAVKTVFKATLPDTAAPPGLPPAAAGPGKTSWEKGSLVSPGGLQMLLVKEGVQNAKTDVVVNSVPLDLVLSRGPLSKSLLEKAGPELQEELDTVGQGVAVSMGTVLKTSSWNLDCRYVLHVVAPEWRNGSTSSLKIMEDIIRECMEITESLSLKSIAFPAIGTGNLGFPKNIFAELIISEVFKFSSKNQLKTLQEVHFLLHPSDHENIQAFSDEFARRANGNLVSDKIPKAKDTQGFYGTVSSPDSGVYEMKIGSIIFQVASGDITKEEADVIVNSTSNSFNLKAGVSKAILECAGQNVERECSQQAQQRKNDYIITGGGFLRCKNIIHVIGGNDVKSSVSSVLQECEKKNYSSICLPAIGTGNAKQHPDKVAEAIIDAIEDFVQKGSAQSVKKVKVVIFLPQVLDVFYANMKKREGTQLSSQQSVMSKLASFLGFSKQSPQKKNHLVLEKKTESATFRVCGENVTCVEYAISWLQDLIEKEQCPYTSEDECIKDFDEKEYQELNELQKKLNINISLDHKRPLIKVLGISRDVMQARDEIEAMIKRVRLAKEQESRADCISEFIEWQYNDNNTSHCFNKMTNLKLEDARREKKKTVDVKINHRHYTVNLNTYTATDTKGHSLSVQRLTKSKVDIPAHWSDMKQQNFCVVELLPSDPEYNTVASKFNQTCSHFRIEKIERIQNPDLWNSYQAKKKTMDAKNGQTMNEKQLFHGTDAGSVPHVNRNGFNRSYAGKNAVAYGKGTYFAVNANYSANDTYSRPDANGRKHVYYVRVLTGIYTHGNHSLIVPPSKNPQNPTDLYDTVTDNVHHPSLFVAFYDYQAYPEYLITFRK
Test: Inhibition of recombinant human His6-tagged PARP14 catalytic/WWE domain (1459 to 1801 residues) expressed in Escherichia coli BL21(DE3) preincubated for 15 mins followed by biotinylated NAD+ addition by chemiluminescence assay
Details: read-out: IC50
Readout kind: IC50 (nM)

Would you please look over these solved cases?
>>> df
                                   molecule  unit_abbrev  numeric_readout
0  NC(=O)c1cccc(NC(=O)/C=C\C(=O)N2CCCC(Oc3ccccc3)C2)c1 (stereo not drawn)           nM             1400
1  NC(=O)c1cccc(NC(=O)/C=C\C(=O)N2CCC(c3ccc(F)cc3)CC2)c1           nM              270
2  NC(=O)c1cccc(NC(=O)/C=C\C(=O)N2CCC(c3ccccc3)CC2)c1           nM             2200

[I] NC(=O)c1cccc(NC(=O)/C=C\C(=O)N2CCCC(c3ccccc3)C2)c1 (stereo not drawn)
[II] NC(=O)c1cccc(NC(=O)/C=C\C(=O)N2CCN(c3ccc(-c4ccccc4)cc3)CC2)c1
Please state the entry with greater IC50 among I and II . # respond with the chosen item's label
II
(II: 4200 nM, I: 690 nM)

[a] NC(=O)c1cccc(NC(=O)/C=C\C(=O)N2CCC(CCc3ccccc3)CC2)c1
[b] NC(=O)c1cccc(NC(=O)/C=C\C(=O)N2CCN(c3ccccc3F)CC2)c1
[c] NC(=O)c1cccc(NC(=O)/C=C\C(=O)N2CCCCC2c2ccccc2)c1 (stereo not drawn)
[d] NC(=O)c1cccc(NC(=O)/C=C\C(=O)N2CCN(c3ccc(Cl)cc3)CC2)c1
Falling order of IC50, please. Use the labels to give the requested order.
c, a, b, d
(c: 1100 nM, a: 650 nM, b: 410 nM, d: 160 nM)

[P] NC(=O)c1cccc(NC(=O)/C=C\C(=O)N2CCCCC2Cc2ccccc2)c1 (stereo not drawn)
[Q] CC(C)(C)OC(=O)N1CCN(C(=O)/C=C\C(=O)Nc2cccc(C(N)=O)c2)CC1
[R] NC(=O)c1cccc(NC(=O)/C=C\C(=O)N2CCN(c3ccc(F)cc3)CC2)c1
[S] CCOC(=O)CC1CCN(C(=O)/C=C\C(=O)Nc2cccc(C(N)=O)c2)CC1
Hey, can you sort those molecules up there by IC50, smallest first? Use the labels to give the requested order.
Q, R, S, P
(Q: 370 nM, R: 700 nM, S: 2400 nM, P: 3500 nM)

[1] NC(=O)c1cccc(NC(=O)/C=C\C(=O)N2CCN(c3ccccc3)CC2)c1
[2] NC(=O)c1cccc(NC(=O)/C=C\C(=O)N2CCN(c3ncccn3)CC2)c1
[3] NC(=O)c1cccc(NC(=O)/C=C\C(=O)N2CCC(Cc3ccccc3)CC2)c1
Hey, can you sort those molecules up there by IC50, smallest first? Use the labels to give the requested order.
3, 1, 2

---

Organism: Homo sapiens
Test: Selectivity ratio of IC50 for recombinant human His6-tagged PARP5a catalytic domain (1091 to 1325 residues) to IC50 for recombinant human His6-tagged PARP14 catalytic/WWE domain (1459 to 1801 residues)
Readout kind: Ratio IC50

In [3]: df
Out[3]:
                                item_smiles  numeric_readout
0  NC(=O)c1cccc(NC(=O)/C=C\C(=O)N2CCC(Cc3ccccc3)CC2)c1               11
1  NC(=O)c1cccc(NC(=O)/C=C\C(=O)N2CCN(c3ccccc3)CC2)c1              6.7
2  NC(=O)c1cccc(NC(=O)/C=C\C(=O)N2CCN(c3ccc(F)cc3)CC2)c1              3.9
3  NC(=O)c1cccc(NC(=O)/C=C\C(=O)N2CCN(c3ccccc3F)CC2)c1               23

[P] NC(=O)c1cccc(NC(=O)/C=C\C(=O)N2CCC(c3ccc(F)cc3)CC2)c1
[Q] NC(=O)c1cccc(NC(=O)/C=C\C(=O)N2CCN(c3ccc(Cl)cc3)CC2)c1
# compare Ratio IC50 for P vs Q ; return the one with the smaller value # respond with the chosen item's label
Q
(Q: 5.6, P: 30)

---

Molecular target: Poly [ADP-ribose] polymerase 1 (Homo sapiens, UniProt P09874)
Sequence (P09874 whole entry): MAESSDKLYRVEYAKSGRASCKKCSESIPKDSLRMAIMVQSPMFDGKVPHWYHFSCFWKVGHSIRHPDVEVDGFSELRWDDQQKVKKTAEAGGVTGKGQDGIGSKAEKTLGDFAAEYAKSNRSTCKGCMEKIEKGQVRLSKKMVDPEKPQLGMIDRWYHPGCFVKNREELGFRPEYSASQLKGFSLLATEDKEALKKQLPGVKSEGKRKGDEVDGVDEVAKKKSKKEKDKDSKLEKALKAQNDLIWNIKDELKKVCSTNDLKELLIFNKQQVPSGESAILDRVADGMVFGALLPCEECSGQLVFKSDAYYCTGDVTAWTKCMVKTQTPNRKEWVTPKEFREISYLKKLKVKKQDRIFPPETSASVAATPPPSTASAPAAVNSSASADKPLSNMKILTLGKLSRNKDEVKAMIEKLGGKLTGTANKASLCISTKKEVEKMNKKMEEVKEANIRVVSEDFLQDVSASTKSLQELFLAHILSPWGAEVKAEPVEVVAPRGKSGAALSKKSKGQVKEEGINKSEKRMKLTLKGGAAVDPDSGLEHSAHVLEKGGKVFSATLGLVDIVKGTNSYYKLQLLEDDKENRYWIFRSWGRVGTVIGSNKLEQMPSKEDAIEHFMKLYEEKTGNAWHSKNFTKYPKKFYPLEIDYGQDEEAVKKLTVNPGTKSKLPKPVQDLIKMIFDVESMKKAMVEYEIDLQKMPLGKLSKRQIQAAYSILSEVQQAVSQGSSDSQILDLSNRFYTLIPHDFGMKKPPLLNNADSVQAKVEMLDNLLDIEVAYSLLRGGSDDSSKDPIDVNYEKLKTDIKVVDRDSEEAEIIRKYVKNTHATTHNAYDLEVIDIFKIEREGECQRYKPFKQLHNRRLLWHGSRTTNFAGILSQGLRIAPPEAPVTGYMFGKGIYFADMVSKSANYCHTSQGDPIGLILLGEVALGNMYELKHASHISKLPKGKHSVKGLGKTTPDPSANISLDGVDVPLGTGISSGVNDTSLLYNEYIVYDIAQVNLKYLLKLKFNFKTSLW
Assay: Inhibition of recombinant human full length His6-tagged PARP1 expressed in Escherichia coli BL21(DE3) preincubated for 15 mins followed by biotinylated NAD+ addition by chemiluminescence assay
Readout kind: IC50 (nM)

>>> df
                                item_smiles  unit_abbrev  numeric_readout
0  NC(=O)c1cccc(NC(=O)/C=C\C(=O)N2CCC(c3ccc(F)cc3)CC2)c1           nM              270

[P] NC(=O)c1cccc(NC(=O)/C=C\C(=O)N2CCC(Cc3ccccc3)CC2)c1
[Q] NC(=O)c1cccc(NC(=O)/C=C\C(=O)N2CCN(c3ccccc3F)CC2)c1
# compare IC50 for P vs Q ; return the one with the smaller value # respond with the chosen item's label
P
(P: 230 nM, Q: 510 nM)

The reported numbers originate from ChEMBL document CHEMBL4020766.
